Provenance of the data: ChEMBL document CHEMBL1201862

tested on: ACHN; experiment: NCI tumour cell line growth inhibition, 48 h
Active and inactive are the calls of the source. Rule as the data show it: active = GI50 up to about 1.1 µM and inactive = higher.
reportedEndpoint: GI50

- COC(=O)c1ccccc1/C=C1\Cc2cc(C)cc(C)c2C1=O: > 100 µM (inactive)
- Cc1cc(/N=C/c2ccc(Cl)cc2)n(-c2ccccc2)n1: 47.2 µM (inactive)
- CC(=O)NC1C(OCc2ccccc2)OC(CO)C(O)C1OCC(=O)NC(C)C(=O)NC(CCC(=O)NCCCCCC(=O)Nc1ccc2c(c1)CN1C(=O)c3ccccc3C1=N2)C(N)=O (stereo not given): 62.8 µM (inactive)
- O=C1/C(=C/c2ccc3c(c2)OCO3)CCC1CN1CCOCC1 (stereo not given): 10.7 µM (inactive)
- CCSC1=CC(=O)c2nc3ccccc3c3ccnc1c23: 3.65 µM (inactive)
- COc1ccc(/C(Cl)=C/c2cc(OC)ccc2OC)cc1: 65.8 µM (inactive)
- C=C1C[C@@H]2O[C@H]3[C@H]4[C@@H](C[C@@H](C)[C@@H](OC(C)=O)[C@H]42)[C@@H](C)CO[C@@]3(C)[C@H](OC(=O)CCCCCCC)CC1=O: 16 µM (inactive)
- CC(C)C(/C=C/c1ccc(Cl)cc1)=N\NC(=O)N/N=C(/C=C/c1ccc(Cl)cc1)C(C)C: 29.2 µM (inactive)
- O=c1cnn(C2OC(C(O)CO)C(O)C2O)c(=O)[nH]1 (stereo not given): > 100 µM (inactive)
- O=C1/C(=C/c2ccccc2)CN(C(=O)/C=C/c2ccccc2)C/C1=C\c1ccccc1: 14.2 µM (inactive)
- C=C1C(=O)O[C@@H]2C[C@@]3(C)CCC[C@H](C)C3=C[C@H]12: 10 µM (inactive)
- COc1ccc(CCNC(=O)Cc2ccccc2CCO)cc1OC: > 100 µM (inactive)
- O=C1OC(C2Cc3ccc4c(c3C2=O)CCCC4)c2ccccc21 (stereo not given): 44.6 µM (inactive)
- COC(=O)c1ccc2n1C1CC3CC(CC2C3)C1: > 100 µM (inactive)
- Cc1cc(S(=O)(=O)NC(=C(C#N)C#N)[n+]2ccc(N(C)C)cc2)c([S-])cc1Cl: > 100 µM (inactive)
- CCOC(=O)C(=O)/C(=C/NC(=S)Nc1ccc(Cl)c(Cl)c1)C(=O)OCC: > 100 µM (inactive)
- Cc1c(O)c(=O)ccn1CCO: > 100 µM (inactive)
- CCOC(=O)NC(=O)c1cn(CCN2CCNCC2)c(=O)[nH]c1=O: > 100 µM (inactive)
- CCCCCCCCCCCCCCCC(=O)OCC(O)C1OC(=O)C(O)=C1O (stereo not given): 34 µM (inactive)
- CN1CN(c2ccccc2)C2(CCN(Cc3csc4ccccc34)CC2)C1=O: 17.6 µM (inactive)

###

test system: CAKI-1; experiment: NCI tumour cell line growth inhibition, 48 h
Active and inactive are the calls of the source. No stated cut-off is given here; in the data, active = GI50 up to about 1.1 µM and inactive = higher.
reportedEndpoint: GI50

- CCOC(=O)C(=O)/C(=C/NC(=S)Nc1ccc(Cl)c(Cl)c1)C(=O)OCC: 64.7 µM (inactive)
- Cn1c2c(c3c(=O)[nH]ncc31)CCc1ccccc1-2: 32.1 µM (inactive)
- CC(C)(C)OC(=O)N1CCc2c(n(C/C=C/c3ccccc3)[nH]c2=O)C1: > 100 µM (inactive)
- C[C@]12CC[C@H](O)CC1=CC[C@@H]1C2CC[C@]2(C)C(=O)N(N)C(=O)CC12 (stereo partly specified): > 100 µM (inactive)
- COc1cc2c(cc1OC)C1C=NC(C2)c2cc(OC)c(OC)cc21 (stereo unspecified): 97.7 µM (inactive)
- Cc1cc(C)nc(NS(=O)(=O)c2ccc(Nc3c4ccccc4nc4c(C(=O)N5CCN(CCO)CC5)cccc34)cc2)n1: > 100 µM (inactive)
- Cc1cc(=O)oc2cc(OCC(O)COC(C)C)ccc12 (stereo unspecified): > 100 µM (inactive)
- NC(CC(=O)O)(Cc1ccccc1)C(=O)O (stereo unspecified): > 100 µM (inactive)
- Cc1cn(C2CC(CCCO)C(CO)O2)c(=O)[nH]c1=O (stereo unspecified): > 100 µM (inactive)
- NCc1ccccc1.O=C(O)NCc1ccccc1: 42.7 µM (inactive)
- O=S1(=O)C[C@@H](NCc2ccccc2)[C@H](NCc2ccccc2)C1: > 100 µM (inactive)

###

test system: MDA-MB-231; test: NCI tumour cell line growth inhibition, 48 h
Calls of active or inactive are those of the source. Cut-off read from the data, not from the text of the source: active = GI50 up to about 1.1 µM and inactive = higher.
Outcomes: active, inactive

• CCOC(=O)c1sc2c(c1OC(=O)c1ccc(Cl)cc1Cl)c(=O)n(-c1ccccc1)c(=S)n2-c1ccccc1 = inactive
• O=C(c1cccc2ccccc12)C1(Br)S(=O)(=O)OCCOS1(=O)=O = inactive
• O=C(O)c1ccc(C2SCc3nc4ccccc4n32)cc1 (stereo unspecified) = inactive
• O=C(NNc1nc(-c2ccccc2)cs1)Nc1ccccc1 = inactive
• O=c1cc(-c2ccccc2)[nH]c2ccc(N3CCCC3)cc12 = active
• O=C1OC(c2ccccc2)=N/C1=C\c1ccc(Br)cc1 = inactive

###

tested on: HT-29; assay: NCI tumour cell line growth inhibition, 48 h
Calls of active or inactive are those of the source. Cut-off read from the data, not from the text of the source: active = GI50 up to about 1.1 µM and inactive = higher.
We begin with a simple list: items and their reported GI50.
reportedEndpoint: GI50

• COC(=O)c1ccccc1/C=C1\Cc2cc(C)cc(C)c2C1=O = > 100 µM (inactive)
• C=C1C(=O)O[C@@H]2C[C@@]3(C)CCC[C@H](C)C3=C[C@H]12 = 4.29 µM (inactive)
• CC1=CC(=O)/C(=C/n2c(=S)[nH]c3cc(C)ccc32)C(=O)O1 = > 100 µM (inactive)
• Cc1ccc(C)n2c1nc1ccccc12 = 31.9 µM (inactive)
• CCOC(=O)C(=O)/C(=C/NC(=S)Nc1ccc(Cl)c(Cl)c1)C(=O)OCC = 56.9 µM (inactive)
• Cc1cc(=O)oc2cc(OCC(O)COC(C)C)ccc12 (stereo unspecified) = > 100 µM (inactive)
• Cn1c(=O)c2[nH]c(N/N=C3/SCC(=O)N3Cc3ccccc3)nc2n(C)c1=O = 48.9 µM (inactive)
• Clc1ccc(Nc2nn3c(CCCCCCCCc4nnc5sc(Nc6ccc(Cl)cc6)nn45)nnc3s2)cc1 = 49.3 µM (inactive)
• Oc1cc(Br)cc2cc(Cl)cnc12 = 11 µM (inactive)
• Cc1cn(C2CC(CCCO)C(CO)O2)c(=O)[nH]c1=O (stereo unspecified) = > 100 µM (inactive)
• O=C1OC(c2ccccc2)=N/C1=C\c1ccc(Br)cc1 = > 100 µM (inactive)

###

system: MDA-MB-231; experiment: NCI tumour cell line growth inhibition, 48 h
Activity calls are given as the source filed them. Rule as the data show it: active = GI50 up to about 1.1 µM and inactive = higher.
reportedEndpoint: GI50

• O=c1cnn(C2OC(C(O)CO)C(O)C2O)c(=O)[nH]1 (centres undefined) = > 100 µM (inactive)
• Cc1cn(CCCCOC(=O)NC(CCCNC(N)=O)C(=O)O)c(=O)[nH]c1=O (centres undefined) = > 100 µM (inactive)
• COC(=O)CNC(=O)CNC(=O)CSc1nnc(COc2ccc(Cl)cc2)n1-c1ccccc1 = 19.1 µM (inactive)
• CC(=O)OI1NC(=O)c2ccccc21 = > 100 µM (inactive)
• O=C1C=CC(=O)c2c1cc([N+](=O)[O-])c1ccoc21 = 21.3 µM (inactive)
• NCCN1C(=O)CN=C(c2ccc(Cl)cc2)c2cc(Cl)ccc21 = 14.3 µM (inactive)
• COC(=O)/C=C/c1ccc2nncnc2c1.COC(=O)/C=C\c1ccc2nncnc2c1 = > 100 µM (inactive)
• CN1C2CC(=O)CC1[C@H](O)[C@@H]2O = > 100 µM (inactive)
• CC(=O)OC1[C@@H](OC(C)=O)CN(OCc2ccccc2)C[C@H]1OC(C)=O (some centres undefined) = > 100 µM (inactive)
• Cn1c(=O)c2[nH]c(N/N=C3/SCC(=O)N3Cc3ccccc3)nc2n(C)c1=O = 51.9 µM (inactive)
• CC(C)(C)c1cc(C(=O)/C=C/c2ccc3c(c2)CCO3)cc(C(C)(C)C)c1O = 2.28 µM (inactive)
• O=C(c1ccsc1)c1nccc2c1cnc1ccccc12 = 61 µM (inactive)
• CN1CN(c2ccccc2)C2(CCN(Cc3csc4ccccc34)CC2)C1=O = > 10 µM (inactive)
• CCN1CCN(c2nc3ccc([N+](=O)[O-])cc3nc2C(=O)c2ccccc2)CC1 = 14.6 µM (inactive)
• COc1ccc(/C=C/c2cc(OC)cc(=O)o2)cc1 = > 100 µM (inactive)
• COC(=O)c1ccccc1/C=C1\Cc2cc(C)cc(C)c2C1=O = > 100 µM (inactive)
• O=C(O)CP(=O)(O)O = > 100 µM (inactive)
• CN(C)c1ccc(Cc2cc3c(O)ccc(O)c3cc(Cc3ccc(N(C)C)cc3)c2=O)cc1 = 20.1 µM (inactive)
• c1ccc(CSc2nnc3c4ccccc4c4ccccc4c3n2)cc1 = 35.2 µM (inactive)
• CN(C)CCCn1c(Cc2ccccc2)nc2cc(C(F)(F)F)ccc21 = 22.4 µM (inactive)
• COc1cc(C2c3cc4c(cc3OC(N3CCOCC3)C2C)OCO4)cc(OC)c1O (centres undefined) = 10.1 µM (inactive)
• CN1C2CCC1C(CO)C(=O)C2 (centres undefined) = > 100 µM (inactive)
• Cc1ccc2c(c1)[nH]c(=S)n2C=C1C(=O)CC(C)(C)CC1=O = > 100 µM (inactive)
• CN1CCN(c2ccc3[nH]c(-c4ccc5[nH]c(CCCc6ccc(N(CCCl)CCCl)cc6)nc5c4)nc3c2)CC1 = > 100 µM (inactive)
• COc1cc2c(c(O)c1OC)C(O)C1CCC(=O)N1C2c1cccc2ccccc12 (centres undefined) = 89.5 µM (inactive)
• Clc1ccc(Nc2nn3c(CCCCCCCCc4nnc5sc(Nc6ccc(Cl)cc6)nn45)nnc3s2)cc1 = 29.4 µM (inactive)
• COC(=O)C(Cc1cn(C(C)=O)c2ccccc12)P(=O)(OC)OC (centres undefined) = > 100 µM (inactive)
• CCOC(=O)NC(Nc1ccc([N+](=O)[O-])cc1)(C(F)(F)F)C(F)(F)F = 94.2 µM (inactive)
• Clc1nc(Cl)c(Cc2ccccc2)c(Cl)n1 = 3.75 µM (inactive)
• O=C(CCc1ccc(O)c(O)c1)NCCc1cc(O)cc(O)c1 = > 100 µM (inactive)
• O=S(=O)(/N=c1/[nH]c2ccccc2n1S(=O)(=O)c1ccccc1)c1ccccc1 = > 100 µM (inactive)
• Cc1cn([C@@H]2C[C@@H]2CO)c(=O)[nH]c1=O = > 100 µM (inactive)
• CCN(CC)CCOCC1CCCN2CCCCC12 (centres undefined) = > 100 µM (inactive)
• Cc1cc(S(=O)(=O)O)c(NC(=O)c2oc3cc(O)ccc3c(=O)c2C)cc1Cl = > 100 µM (inactive)
• CC(C)C(C/C=C1/CC(CO)(COC(=O)C2CCCCC2)OC1=O)C(C)C (centres undefined) = 17 µM (inactive)
• CC1CC(N2CCOCC2)=Nc2ccccc2N1C (centres undefined) = > 100 µM (inactive)
• COC(=O)C1=C(C)NC2=C(C(=O)c3ccccc32)C1c1c[nH]nc1-c1ccccc1 (centres undefined) = 30.1 µM (inactive)
• COC(=O)Nc1nc2cc(NC(=O)c3ccc(I)cc3)ccc2[nH]1 = > 100 µM (inactive)
• Cc1cc2c(cc1C)OC(=O)CC2 = > 100 µM (inactive)
